Where do the numbers come from? From paper PMC10368747.

- system.tested: T1, Hermes BED domain (Musca domestica, UniProt Q25442 1-78)
- T1 sequence: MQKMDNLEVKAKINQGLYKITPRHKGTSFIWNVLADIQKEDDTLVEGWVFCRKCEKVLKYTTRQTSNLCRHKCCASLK
- assay.notes: EMSA; two BED per DNA, cooperative; 0.5 uM ran17 competitor; value assigned by the peer review file; BED EMSA: 25 mM HEPES.Na pH 7.5, 150 mM NaCl, 0.3 mM TCEP, 1 uM DNA, 0.5 uM ran17, 0-10 uM BED, 1 h 4 C then 15 min RT; 15% PAGE 0.5X TBE; Hermes SEC at 150 mM
- assay.setup: protein: recombinant; tags: untagged; label: 5'-6FAM top strand (EMSA, 10% of the DNA); blunt
property: pKd
Scale explanation: pKd corresponds to minus log10 of a concentration expressed in moles per litre.

// LE11-27 (dsDNA) DNA 1: CAACAAGTGGCTTATTT DNA 2: AAATAAGCCACTTGTTG : pKd value = 5.60
